selectivity ratio values for the compounds below.
experiment: Selectivity index, ratio of CC50 for human 293T/ACE2 cells to EC50 for SARS-CoV-2 Omicron; assay type: toxicity; conditions: read-out: Ratio CC50/EC50

structureSmiles	selectivity ratio
C=C(C)[C@@H]1CC[C@]2(C(=O)NCc3ccc4ccccc4c3)CC[C@]3(C)[C@H](CC[C@@H]4[C@@]5(C)CC[C@H](O[C@@H]6O[C@H](CO)[C@@H](O[C@@H]7O[C@@H](C)[C@H](O)[C@@H](O)[C@H]7O)[C@H](O)[C@H]6O[C@@H]6O[C@@H](C)[C@H](O)[C@@H](O)[C@H]6O)C(C)(C)[C@@H]5CC[C@]43C)[C@@H]12	62.7
C=C(C)[C@@H]1CC[C@]2(C(=O)OC)CC[C@]3(C)[C@H](CC[C@@H]4[C@@]5(C)CC[C@H](O[C@@H]6O[C@H](CO)[C@@H](O[C@@H]7O[C@@H](C)[C@H](O)[C@@H](O)[C@H]7O)[C@H](O)[C@H]6O[C@@H]6O[C@@H](C)[C@H](O)[C@@H](O)[C@H]6O)C(C)(C)[C@@H]5CC[C@]43C)[C@@H]12	5.8

###

test: Selectivity index, ratio of CC50 for human 293T/ACE2 cells to EC50 for SARS-CoV-2 Omicron; assay type: toxicity; conditions: read-out: Ratio CC50/EC50
experimentalEndpoint: selectivity ratio

structureSmiles	valueQualifier	measuredNumber
C=C(C)[C@@H]1CC[C@]2(C(=O)N(C)c3ccccc3)CC[C@]3(C)[C@H](CC[C@@H]4[C@@]5(C)CC[C@H](O[C@@H]6O[C@H](CO)[C@@H](O[C@@H]7O[C@@H](C)[C@H](O)[C@@H](O)[C@H]7O)[C@H](O)[C@H]6O[C@@H]6O[C@@H](C)[C@H](O)[C@@H](O)[C@H]6O)C(C)(C)[C@@H]5CC[C@]43C)[C@@H]12	=	13.7
C=C(C)[C@@H]1CC[C@]2(C(=O)Nc3ccccc3)CC[C@]3(C)[C@H](CC[C@@H]4[C@@]5(C)CC[C@H](O[C@@H]6O[C@H](CO)[C@@H](O[C@@H]7O[C@@H](C)[C@H](O)[C@@H](O)[C@H]7O)[C@H](O)[C@H]6O[C@@H]6O[C@@H](C)[C@H](O)[C@@H](O)[C@H]6O)C(C)(C)[C@@H]5CC[C@]43C)[C@@H]12	>	16
C=C(C)[C@@H]1CC[C@]2(C(=O)Nc3cccc(Cl)c3)CC[C@]3(C)[C@H](CC[C@@H]4[C@@]5(C)CC[C@H](O[C@@H]6O[C@H](CO)[C@@H](O[C@@H]7O[C@@H](C)[C@H](O)[C@@H](O)[C@H]7O)[C@H](O)[C@H]6O[C@@H]6O[C@@H](C)[C@H](O)[C@@H](O)[C@H]6O)C(C)(C)[C@@H]5CC[C@]43C)[C@@H]12	=	8.51
C=C(C)[C@@H]1CC[C@]2(C(=O)Nc3cccc(OC)c3)CC[C@]3(C)[C@H](CC[C@@H]4[C@@]5(C)CC[C@H](O[C@@H]6O[C@H](CO)[C@@H](O[C@@H]7O[C@@H](C)[C@H](O)[C@@H](O)[C@H]7O)[C@H](O)[C@H]6O[C@@H]6O[C@@H](C)[C@H](O)[C@@H](O)[C@H]6O)C(C)(C)[C@@H]5CC[C@]43C)[C@@H]12	=	26.9
C=C(C)[C@@H]1CC[C@]2(C(=O)Nc3ccc(OC)cc3)CC[C@]3(C)[C@H](CC[C@@H]4[C@@]5(C)CC[C@H](O[C@@H]6O[C@H](CO)[C@@H](O[C@@H]7O[C@@H](C)[C@H](O)[C@@H](O)[C@H]7O)[C@H](O)[C@H]6O[C@@H]6O[C@@H](C)[C@H](O)[C@@H](O)[C@H]6O)C(C)(C)[C@@H]5CC[C@]43C)[C@@H]12	=	18.9
C=C(C)[C@@H]1CC[C@]2(C(=O)Nc3ccc(-c4ccccc4)cc3)CC[C@]3(C)[C@H](CC[C@@H]4[C@@]5(C)CC[C@H](O[C@@H]6O[C@H](CO)[C@@H](O[C@@H]7O[C@@H](C)[C@H](O)[C@@H](O)[C@H]7O)[C@H](O)[C@H]6O[C@@H]6O[C@@H](C)[C@H](O)[C@@H](O)[C@H]6O)C(C)(C)[C@@H]5CC[C@]43C)[C@@H]12	=	11.9
C=C(C)[C@@H]1CC[C@]2(C(=O)NOc3ccccc3)CC[C@]3(C)[C@H](CC[C@@H]4[C@@]5(C)CC[C@H](O[C@@H]6O[C@H](CO)[C@@H](O[C@@H]7O[C@@H](C)[C@H](O)[C@@H](O)[C@H]7O)[C@H](O)[C@H]6O[C@@H]6O[C@@H](C)[C@H](O)[C@@H](O)[C@H]6O)C(C)(C)[C@@H]5CC[C@]43C)[C@@H]12	=	11.7
C=C(C)[C@@H]1CC[C@]2(C(=O)Nc3ccc4ncccc4c3)CC[C@]3(C)[C@H](CC[C@@H]4[C@@]5(C)CC[C@H](O[C@@H]6O[C@H](CO)[C@@H](O[C@@H]7O[C@@H](C)[C@H](O)[C@@H](O)[C@H]7O)[C@H](O)[C@H]6O[C@@H]6O[C@@H](C)[C@H](O)[C@@H](O)[C@H]6O)C(C)(C)[C@@H]5CC[C@]43C)[C@@H]12	=	8.25
C=C(C)[C@@H]1CC[C@]2(C(=O)NCCc3ccccc3)CC[C@]3(C)[C@H](CC[C@@H]4[C@@]5(C)CC[C@H](O[C@@H]6O[C@H](CO)[C@@H](O[C@@H]7O[C@@H](C)[C@H](O)[C@@H](O)[C@H]7O)[C@H](O)[C@H]6O[C@@H]6O[C@@H](C)[C@H](O)[C@@H](O)[C@H]6O)C(C)(C)[C@@H]5CC[C@]43C)[C@@H]12	=	26.7
C=C(C)[C@@H]1CC[C@]2(C(=O)Nc3ccc(Cl)cc3)CC[C@]3(C)[C@H](CC[C@@H]4[C@@]5(C)CC[C@H](O[C@@H]6O[C@H](CO)[C@@H](O[C@@H]7O[C@@H](C)[C@H](O)[C@@H](O)[C@H]7O)[C@H](O)[C@H]6O[C@@H]6O[C@@H](C)[C@H](O)[C@@H](O)[C@H]6O)C(C)(C)[C@@H]5CC[C@]43C)[C@@H]12	=	13.5
O=C(/C=C/c1ccc(O)c2oc(-c3ccc(O)c(O)c3)cc12)O[C@H](Cc1ccc(O)c(O)c1)C(=O)O	>	17.8

Where do these numbers come from? They come from ChEMBL document CHEMBL5370556.
